biological target: Hepatocyte Growth Factor Activator (HGFA) serine protease domain, N-terminal His-tag, recombinant (Homo sapiens (Human)) (UniProt Q04756); experiment: fluorogenic inhibition assay
pKi: −log10 of the molar value. *: point of attachment. kbt‑6‑CONH‑4‑piperidine = ketobenzothiazole-6-CONH-4-piperidine (Kbt-4-piperidinylamide), O=C(NC1CCNCC1)c1ccc2nc(*)sc2c1; kbt = C-terminal ketobenzothiazole, c1ccc2sc(*)nc2c1; Kbt = ketobenzothiazole, c1ccc2sc(*)nc2c1; kt = C-terminal ketothiazole, c1csc(*)n1; Fmoc = O=C(OCC1c2ccccc2-c2ccccc21)*
Binary classification by pKi, with 7 as an inclusive lower bound for 1; all other cases are 0.

Consider the following illustrative entries.
- binder: "H-Trp-Phe-Arg-kbt [H-WFR-kbt]"
  discrete.label: 0
- binder: "Fmoc-Gln-Arg-kbt [Fmoc-QR-kbt]"
  discrete.label: 0
- binder: "Ac-SKLR-{kbt‑6‑CONH‑4‑piperidine} [Ac-SKLR(SEQ ID NO: 10)-Kbt-4-piperidinylamide]"
  discrete.label: 1
- binder: "Ac-KRLR-Kbt (not fully specified) [Ac-KRLR(SEQ ID NO: 8)-Kbt-5-COOH]"
  discrete.label: 1

Next:
Problem: Has Ac-SHLR-kt (SMILES CC(=O)N[C@@H](CO)C(=O)N[C@@H](Cc1c[nH]cn1)C(=O)N[C@@H](CC(C)C)C(=O)N[C@@H](CCCNC(=N)N)C(=O)c1nccs1) [Ac-SHLR(SEQ ID NO: 11)-kt] a recorded pKi greater than or equal to 7?
Solution: 0
